Data provenance: patent US20250179559A1

Test system: wild-type Pleuromamma xiphias luciferase (WT-Pxluc)
Measurement protocol: Luminescence intensity of substrates with wild-type Pleuromamma xiphias luciferase
Type: biochemical
Conditions: percentage relative to wild-type Pleuromamma xiphias luciferase with compound N0; substrate 10 μM
Readout label: Pxluc relative intensity (%)
The response must be a number in % with no trailing unit.

# annotated cases, reported Pxluc relative intensity shown
Prompt: Hi! What's the reported Pxluc relative intensity for O=c1c(Cc2ccc(F)cc2)nc2c(Cc3ccccc3)[nH]c(-c3ccc(O)cc3)cn1-2 on wild-type Pleuromamma xiphias luciferase (WT-Pxluc)?
Completion: 43.2

Prompt: Hi! What's the reported Pxluc relative intensity for O=c1c(Cc2ccc(O)cc2)nc2c(Cc3ccccc3)[nH]c(-c3cccc(O)c3)cn1-2 [Substrate N0] on wild-type Pleuromamma xiphias luciferase (WT-Pxluc)?
Completion: 100

Prompt: Hi! What's the reported Pxluc relative intensity for O=c1c(Cc2ccc(F)cc2)nc2c(Cc3ccccc3)[nH]c(/C=C/c3ccccc3)cn1-2 [Substrate N8] on wild-type Pleuromamma xiphias luciferase (WT-Pxluc)?
Completion: 0.9

Now look at this one.
Prompt: Hi! What's the reported Pxluc relative intensity for Nc1ccc(-c2cn3c(=O)c(Cc4ccc(O)cc4)nc-3c(Cc3ccccc3)[nH]2)cc1 [Substrate N5] on wild-type Pleuromamma xiphias luciferase (WT-Pxluc)?
Completion: 2.8

###

System: wild-type Gaussia luciferase (WT-Gluc)
Measurement protocol: Luminescence intensity of substrates with wild-type Gaussia luciferase
Assay type: biochemical, Gaussia princeps
Conditions: luciferase 1 μg/mL (10 μL), substrate 10 μM (90 μL), microplate reader
Text: [drawing 6] • (3) According to the conventional methods, such as the method disclosed in PCT/CN2017/082180, an expression vector (plasmid) containing the wild-type Gaussia luciferase gene and the wild-type Pleuromamma xiphias luciferase gene was constructed. […] The concentration of luciferase was accurately determined by using a BCA quantitative kit (Thermoscientific™ Pierce™ BCA protein assay kit). […]
Readout label: Gluc fluorescence intensity
// no unit, no text: just the number

Prompt: Which Gluc fluorescence intensity is listed for Nc1ccc(-c2cn3c(=O)c(Cc4ccc(F)cc4)nc-3c(Cc3ccccc3)[nH]2)cc1 [Substrate N6] ?
Completion: 15

Now look at this one.
Prompt: Which Gluc fluorescence intensity is listed for O=c1c(Cc2ccc(O)cc2)nc2c(Cc3ccccc3)[nH]c(/C=C/c3ccccc3)cn1-2 [Substrate N7] ?
Completion: 135

###

System: wild-type Pleuromamma xiphias luciferase (WT-Pxluc)
Measurement protocol: Luminescence intensity of substrates with wild-type Pleuromamma xiphias luciferase
Format: biochemical
Conditions: luciferase 1 μg/mL (10 μL), substrate 10 μM (90 μL), microplate reader
Response field label takes Fulfilled when Pxluc fluorescence intensity is strictly below 4000 and Not fulfilled in all other cases.

Solved entries:
Prompt: Identify whether the compound Nc1ccc(-c2cn3c(=O)c(Cc4ccc(F)cc4)nc-3c(Cc3ccccc3)[nH]2)cc1 [Substrate N6] records Pxluc fluorescence intensity below 4000.
Completion: Fulfilled

Prompt: Identify whether the compound O=c1c(Cc2ccc(O)cc2)nc2c(Cc3ccccc3)[nH]c(/C=C/c3ccccc3)cn1-2 [Substrate N7] records Pxluc fluorescence intensity below 4000.
Completion: Not fulfilled

Prompt: Identify whether the compound O=c1c(Cc2ccc(O)cc2)nc2c(Cc3ccccc3)[nH]c(Cc3ccccc3)cn1-2 [Substrate N1] records Pxluc fluorescence intensity below 4000.
Completion: Fulfilled

Prompt: Identify whether the compound O=c1c(Cc2ccc(F)cc2)nc2c(Cc3ccccc3)[nH]c(/C=C/c3ccccc3)cn1-2 [Substrate N8] records Pxluc fluorescence intensity below 4000.
Completion: Fulfilled

Prompt: Identify whether the compound CN(C)c1ccc(-c2cn3c(=O)c(Cc4ccc(F)cc4)nc-3c(Cc3ccccc3)[nH]2)cc1 [Substrate N4] records Pxluc fluorescence intensity below 4000.
Completion: Not fulfilled

Prompt: Identify whether the compound O=c1c(Cc2ccc(F)cc2)nc2c(Cc3ccccc3)[nH]c(-c3ccc(O)cc3)cn1-2 records Pxluc fluorescence intensity below 4000.
Completion: Not fulfilled

Prompt: Identify whether the compound CN(C)c1ccc(-c2cn3c(=O)c(Cc4ccc(O)cc4)nc-3c(Cc3ccccc3)[nH]2)cc1 [Substrate N3] records Pxluc fluorescence intensity below 4000.
Completion: Fulfilled

Prompt: Identify whether the compound O=c1c(Cc2ccc(O)cc2)nc2c(Cc3ccccc3)[nH]c(-c3cccc(O)c3)cn1-2 [Substrate N0] records Pxluc fluorescence intensity below 4000.
Completion: Not fulfilled

***
Prompt: Identify whether the compound O=c1c(Cc2ccc(F)cc2)nc2c(Cc3ccccc3)[nH]c(Cc3ccccc3)cn1-2 [Substrate N2] records Pxluc fluorescence intensity below 4000.
Completion: Fulfilled

Prompt: Identify whether the compound Nc1ccc(-c2cn3c(=O)c(Cc4ccc(O)cc4)nc-3c(Cc3ccccc3)[nH]2)cc1 [Substrate N5] records Pxluc fluorescence intensity below 4000.
Completion: Not fulfilled

###

Consider the following molecules and their measured Pxluc relative intensity readings.
Test system: wild-type Pleuromamma xiphias luciferase (WT-Pxluc)
Measurement protocol: Luminescence intensity of substrates with wild-type Pleuromamma xiphias luciferase
Assay type: biochemical
Conditions: percentage relative to wild-type Pleuromamma xiphias luciferase with compound N0; substrate 10 μM
The response must be a number in % with no trailing unit.

# annotated cases, reported Pxluc relative intensity shown
Prompt: Which Pxluc relative intensity is listed for O=c1c(Cc2ccc(F)cc2)nc2c(Cc3ccccc3)[nH]c(Cc3ccccc3)cn1-2 [Substrate N2] ?
Completion: 1.9

Prompt: Which Pxluc relative intensity is listed for O=c1c(Cc2ccc(O)cc2)nc2c(Cc3ccccc3)[nH]c(Cc3ccccc3)cn1-2 [Substrate N1] ?
Completion: 0.7

Prompt: Which Pxluc relative intensity is listed for CN(C)c1ccc(-c2cn3c(=O)c(Cc4ccc(F)cc4)nc-3c(Cc3ccccc3)[nH]2)cc1 [Substrate N4] ?
Completion: 2.6

Prompt: Which Pxluc relative intensity is listed for CN(C)c1ccc(-c2cn3c(=O)c(Cc4ccc(O)cc4)nc-3c(Cc3ccccc3)[nH]2)cc1 [Substrate N3] ?
Completion: 0.9

Prompt: Which Pxluc relative intensity is listed for Nc1ccc(-c2cn3c(=O)c(Cc4ccc(F)cc4)nc-3c(Cc3ccccc3)[nH]2)cc1 [Substrate N6] ?
Completion: 2.2

***
Prompt: Which Pxluc relative intensity is listed for O=c1c(Cc2ccc(O)cc2)nc2c(Cc3ccccc3)[nH]c(/C=C/c3ccccc3)cn1-2 [Substrate N7] ?
Completion: 2.8

###

System: wild-type Gaussia luciferase (WT-Gluc)
Measurement protocol: Luminescence intensity of substrates with wild-type Gaussia luciferase
Assay type: biochemical, Gaussia princeps
Conditions: luciferase 1 μg/mL (10 μL), substrate 10 μM (90 μL), microplate reader
Consider the following compounds and their measured Gluc fluorescence intensity readings.
// no unit, no text: just the number

# annotated cases, reported Gluc fluorescence intensity shown
Prompt: Which Gluc fluorescence intensity is listed for Nc1ccc(-c2cn3c(=O)c(Cc4ccc(O)cc4)nc-3c(Cc3ccccc3)[nH]2)cc1 [Substrate N5] ?
Completion: 457

Prompt: Which Gluc fluorescence intensity is listed for O=c1c(Cc2ccc(F)cc2)nc2c(Cc3ccccc3)[nH]c(Cc3ccccc3)cn1-2 [Substrate N2] ?
Completion: 0

***
Prompt: Which Gluc fluorescence intensity is listed for O=c1c(Cc2ccc(F)cc2)nc2c(Cc3ccccc3)[nH]c(/C=C/c3ccccc3)cn1-2 [Substrate N8] ?
Completion: 12

Prompt: Which Gluc fluorescence intensity is listed for O=c1c(Cc2ccc(F)cc2)nc2c(Cc3ccccc3)[nH]c(-c3ccc(O)cc3)cn1-2 ?
Completion: 10186.5

Prompt: Which Gluc fluorescence intensity is listed for CN(C)c1ccc(-c2cn3c(=O)c(Cc4ccc(O)cc4)nc-3c(Cc3ccccc3)[nH]2)cc1 [Substrate N3] ?
Completion: 263

Prompt: Which Gluc fluorescence intensity is listed for O=c1c(Cc2ccc(O)cc2)nc2c(Cc3ccccc3)[nH]c(Cc3ccccc3)cn1-2 [Substrate N1] ?
Completion: 0

Prompt: Which Gluc fluorescence intensity is listed for CN(C)c1ccc(-c2cn3c(=O)c(Cc4ccc(F)cc4)nc-3c(Cc3ccccc3)[nH]2)cc1 [Substrate N4] ?
Completion: 17

Prompt: Which Gluc fluorescence intensity is listed for O=c1c(Cc2ccc(O)cc2)nc2c(Cc3ccccc3)[nH]c(-c3cccc(O)c3)cn1-2 [Substrate N0] ?
Completion: 5338
